tested on: MCF-7 (human adenocarcinoma); test: Cytotoxicity assay (MTT, 48 h) on MCF-7; assay type: cell-based; settings: read-out: MCF-7, IC50; MTT, 48 h
test-readout: pIC50
One number for each entry, as −log10 of the molar value.

For the compound shown here, Cn1c(=O)c2c(Br)c(CN3CCCNCC3)[se]c2c2ccccc21 , give the reported pIC50.
4.77

----------
target: PARP1 (Homo sapiens, UniProt P09874); test: PARP1 inhibition activity; assay type: biochemical; settings: read-out: PARP1 IC50
Sequence (P09874 whole entry, species assumed): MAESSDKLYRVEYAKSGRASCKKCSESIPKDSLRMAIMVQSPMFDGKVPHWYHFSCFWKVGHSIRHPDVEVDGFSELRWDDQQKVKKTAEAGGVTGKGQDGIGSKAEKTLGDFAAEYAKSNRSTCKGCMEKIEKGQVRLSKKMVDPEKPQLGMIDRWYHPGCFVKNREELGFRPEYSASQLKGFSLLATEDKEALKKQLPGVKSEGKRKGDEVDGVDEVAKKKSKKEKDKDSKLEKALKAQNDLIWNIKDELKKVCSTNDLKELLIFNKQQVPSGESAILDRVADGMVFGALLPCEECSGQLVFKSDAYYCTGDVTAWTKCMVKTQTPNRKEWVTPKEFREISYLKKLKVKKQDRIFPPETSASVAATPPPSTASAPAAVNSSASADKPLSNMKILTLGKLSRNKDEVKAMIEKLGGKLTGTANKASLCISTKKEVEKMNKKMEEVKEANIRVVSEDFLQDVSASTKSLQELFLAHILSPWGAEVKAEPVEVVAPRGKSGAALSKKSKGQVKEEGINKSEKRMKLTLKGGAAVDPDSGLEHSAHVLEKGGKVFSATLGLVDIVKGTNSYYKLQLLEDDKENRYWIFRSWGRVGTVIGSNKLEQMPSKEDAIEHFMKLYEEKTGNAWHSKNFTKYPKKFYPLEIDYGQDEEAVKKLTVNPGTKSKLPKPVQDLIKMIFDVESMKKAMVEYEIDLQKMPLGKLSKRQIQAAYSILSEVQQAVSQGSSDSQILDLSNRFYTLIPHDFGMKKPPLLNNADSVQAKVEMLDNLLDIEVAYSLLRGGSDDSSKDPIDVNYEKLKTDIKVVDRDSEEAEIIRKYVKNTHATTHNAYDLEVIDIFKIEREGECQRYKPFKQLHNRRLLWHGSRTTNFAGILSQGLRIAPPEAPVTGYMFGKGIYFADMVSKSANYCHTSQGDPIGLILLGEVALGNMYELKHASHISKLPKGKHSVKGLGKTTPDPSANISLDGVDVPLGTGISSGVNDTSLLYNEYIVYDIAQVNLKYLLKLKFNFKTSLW
test-readout: pIC50
One number for each entry, as −log10 of the molar value.

Give recorded pIC50 with PARP1 (Homo sapiens, UniProt P09874) for the following compound: Cn1c(=O)c2c(Br)c(CN3CCCN(C(=O)CCCCCCCCCCC(=O)N4CCN(C(=O)c5cc(Cc6n[nH]c(=O)c7ccccc67)ccc5F)CC4)CC3)[se]c2c2ccccc21
6.83
